- System: A549 NSCLC
- assay_details: NCI tumour cell line growth inhibition, 48 h
parameter: TGI

Req: Any idea what its TGI is? The compound is "[O-][n+]1cc(SCc2ccccc2)ncc1SCc1ccccc1"
Resp: > 10 µM

Req: Also "Cc1cccc(Cc2cnc(NC(=O)/C=C/c3ccco3)s2)c1" ?
Resp: > 100 µM

Req: Also "CC(=O)c1nc(C#N)c(N)o1" ?
Resp: > 100 µM

Req: Also "C[C@@H]1CC[C@H]2C(CN(C)CC3=C(C(F)(F)F)O[C@@H]4O[C@@]5(C)CC[C@H]6[C@H](C)CC[C@@H]3[C@@]46OO5)=C(C(F)(F)F)O[C@@H]3O[C@@]4(C)CC[C@@H]1[C@]32OO4" ?
Resp: > 45.4 µM

Req: Also CC(=O)OC1COC(n2c(N)c(C#N)c(-c3ccccc3)c(C#N)c2=S)C(OC(C)=O)C1OC(C)=O (centres undefined) ?
Resp: > 100 µM

Req: Also C=C1CC2C[C@H](OS(=O)(=O)c3ccc(C)cc3)C(C1)N2C (some centres undefined) ?
Resp: > 100 µM

Req: Also COc1ccc(C(=O)C(CN(C)C)c2ccccc2)cc1 (centres undefined) ?
Resp: 96.3 µM

Req: Also "Cc1ccc(/C=C2\CN(C(=O)CCN3CCC(=NO)CC3)C/C(=C\c3ccc(C)cc3)C2=O)cc1" ?
Resp: 7.68 µM

Req: Also "O=c1cc(-c2ccccc2)[nH]c2c(F)ccc(F)c12" ?
Resp: > 100 µM

###

- Tested on: SW-620 colon
- assay_details: NCI tumour cell line growth inhibition, 48 h; in the data active means GI50 below about 0.43 µM; inactive means the rest
Hello, when you answer, please use one of the following outcomes: active, inactive

Req: Please let me know the test result on file for "COc1cc2cc(Oc3ccc(NC(=O)Nc4cc(C(F)(F)F)cc(C(F)(F)F)c4)cc3)c(C)nc2cc1OCCN1CCCCC1" .
Resp: inactive

Req: Also "Cc1cccc(Cc2cnc(NC(=O)/C=C/c3ccco3)s2)c1" ?
Resp: active

Req: Also "CCn1c(-c2nonc2N)nc2c(C#CC(C)(C)O)ncc(OCC3CCNCC3)c21" ?
Resp: inactive

Req: Also "CO[C@H]1/C=C/C=C/C=C/C[C@H](OC(=O)[C@@H](C)NC(=O)C2CCCCC2)[C@H](C)[C@@H](O)/C(C)=C\CCC2=CC(=O)C=C(NC(=O)C1)C2=O" ?
Resp: active

Req: Also "Nc1ccc(Sc2ccc3c4c2cccc4c(=O)n2c4ccccc4nc32)cc1" ?
Resp: inactive

###

- Tested on: DU-145 prostate
- assay_details: NCI tumour cell line growth inhibition, 48 h; in the data active = GI50 below about 0.43 µM; inactive = the rest
Hello, when you answer, please use one of the following outcomes: 1.0 for active, 0.0 for inactive

Req: Please let me know the test result on file for "CO[C@H]1/C=C/C=C/C=C/C[C@H](OC(=O)[C@@H](C)NC(=O)C2CCCCC2)[C@H](C)[C@@H](O)/C(C)=C\CCC2=CC(=O)C=C(NC(=O)C1)C2=O" .
Resp: 1.0

Req: Also "c1ccc(-c2nn(-c3ccccc3)[n+](-c3ccccc3-c3ccccc3)n2)cc1" ?
Resp: 0.0

Req: Also COc1ccc(C2C3=C(COC3=O)N(CCO)c3cc4c(cc32)CCC4)cc1OC (centres undefined) ?
Resp: 0.0

Req: Also "O=C(CN1CCN(c2cc3c(cc2F)c(=O)c(C(=O)O)cn3C2CC2)CC1)Nc1ccc(C(=O)/C=C/c2ccccc2)cc1" ?
Resp: 0.0
